biological target: DNMT3a (Homo sapiens, UniProt Q9Y6K1); experiment: DNMT3a activity assay (Lambda DNA substrate, ^3H-SAM); format: biochemical
Sequence (Q9Y6K1 whole entry, looked up): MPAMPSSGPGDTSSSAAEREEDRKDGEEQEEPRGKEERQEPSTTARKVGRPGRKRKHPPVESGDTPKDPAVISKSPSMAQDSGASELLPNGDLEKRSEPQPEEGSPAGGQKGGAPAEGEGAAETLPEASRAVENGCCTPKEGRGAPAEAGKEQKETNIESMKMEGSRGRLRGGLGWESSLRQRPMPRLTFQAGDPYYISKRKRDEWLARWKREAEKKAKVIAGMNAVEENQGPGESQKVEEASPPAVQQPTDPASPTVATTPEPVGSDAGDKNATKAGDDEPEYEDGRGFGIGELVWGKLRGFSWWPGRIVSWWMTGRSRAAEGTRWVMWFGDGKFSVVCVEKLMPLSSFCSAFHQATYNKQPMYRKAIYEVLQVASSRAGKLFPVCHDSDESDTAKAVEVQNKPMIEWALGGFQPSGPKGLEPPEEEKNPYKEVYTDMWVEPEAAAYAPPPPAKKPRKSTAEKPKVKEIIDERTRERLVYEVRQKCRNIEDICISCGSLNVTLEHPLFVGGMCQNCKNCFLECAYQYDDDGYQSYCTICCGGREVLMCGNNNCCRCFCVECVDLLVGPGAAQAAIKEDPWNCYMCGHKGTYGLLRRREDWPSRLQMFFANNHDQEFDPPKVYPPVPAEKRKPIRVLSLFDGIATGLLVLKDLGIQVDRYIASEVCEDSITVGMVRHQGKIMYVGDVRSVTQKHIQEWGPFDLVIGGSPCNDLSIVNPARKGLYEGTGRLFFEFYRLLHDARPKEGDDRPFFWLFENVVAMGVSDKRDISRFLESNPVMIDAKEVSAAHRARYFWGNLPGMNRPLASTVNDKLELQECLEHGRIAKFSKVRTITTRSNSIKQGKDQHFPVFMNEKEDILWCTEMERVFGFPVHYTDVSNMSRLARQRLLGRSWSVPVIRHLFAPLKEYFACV
readout kind: IC50 (µM)
I only need the number, in µM, no unit after it.

CC(C)CCC[C@@H](C)[C@H]1CC[C@H]2[C@@H]3CC=C4C[C@@H](OS(=O)(=O)O)CC[C@]4(C)[C@H]3CC[C@]12C [Xol3S, 5-cholesten-3β-ol, 3-sulfate, reference compound] ... 82

Could you now consider this next compound?
Prompt: Value lookup for IC50; key = CC(CO)CCC[C@@H](C)[C@H]1CC[C@H]2[C@@H]3CC=C4C[C@@H](OS(=O)(=O)O)CC[C@]4(C)[C@H]3CC[C@]12C (stereo partly drawn) [27HC3S, 5-cholesten-3β, 27-diol 3-sulfate]
Response: 8.88
